- Tested on: total dead cells (totalDeadCells)
- PROTOCOL_TEXT: MLTA, total dead cells concentration-response
- Assay type: cell-based
- PROTOCOL_CONDITIONS: Homo sapiens, 144 h; dose 100 nM, 6 days, normalized to vehicle control; read-out: total_dead normalized cell count
OBSERVATION_TYPE: activity at 0.1 µM (%)

>>> test_value("CC(=O)O[C@H]1C(=O)[C@@]2(C)[C@H]([C@H](OC(=O)c3ccccc3)[C@]3(O)C[C@H](OC(=O)[C@H](O)[C@@H](NC(=O)c4ccccc4)c4ccccc4)C(C)=C1C3(C)C)[C@]1(OC(C)=O)CO[C@@H]1C[C@@H]2O [paclitaxel]")
47.5
>>> test_value("CN(C)C(=O)c1cc2cnc(Nc3ccc(N4CCNCC4)cn3)nc2n1C1CCCC1 [ribociclib]")
60
>>> test_value("CCN1CCN(Cc2ccc(Nc3ncc(F)c(-c4cc(F)c5nc(C)n(C(C)C)c5c4)n3)nc2)CC1 [abemaciclib]")
30.9
>>> test_value("CC(=O)c1c(C)c2cnc(Nc3ccc(N4CCNCC4)cn3)nc2n(C2CCCC2)c1=O [palbociclib]")
40.5
>>> test_value("CS(=O)(=O)N1CCN(Cc2cc3nc(-c4cccc5[nH]ncc45)nc(N4CCOCC4)c3s2)CC1 [pictilisib]")
55.3
>>> test_value("O=C1CCC(N2C(=O)c3ccccc3C2=O)C(=O)N1 (centres unmarked) [thalidomide]")
113
>>> test_value("CCc1cnn2c(NCc3ccc[n+]([O-])c3)cc(N3CCCC[C@H]3CCO)nc12 [dinaciclib]")
38.7
>>> test_value("CC(=O)O[C@@]12CO[C@@H]1C[C@H](O)[C@@]1(C)C(=O)[C@H](O)C3=C(C)[C@@H](OC(=O)[C@H](O)[C@@H](NC(=O)OC(C)(C)C)c4ccccc4)C[C@@](O)([C@@H](OC(=O)c4ccccc4)[C@H]21)C3(C)C [docetaxel]")
46.1
